molecular target: Short transient receptor potential channel 6 (Mus musculus); assay: mouse TRPC6 channel inhibitors, primary screen, cell-based, HEK293, membrane potential dye (AID 2553); conditions: ACh-evoked depolarization, at 10 µM
Screen size: about 310,000 compounds; about 3,300 (1.1%) were called active.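 Rule for the calls: active = B-score under library mean minus 3 SD, initial fluorescence not abnormally high, positive integrated signal ratio; inactive = the rest.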 Shown is part of a subset that was picked to be rich in actives.
Your answer must be one of the following: active, inactive

Use these answered entries as a reference point.
**Q:** What call does the record list for Cc1ccc(NC(=O)[C@H](Cc2ccccc2)NC(=O)C2CCNCC2)cc1 ?
**A:** inactive

**Q:** What call does the record list for COc1ccc(COCCN2CCN(S(=O)(=O)c3ccccc3)CCC2=O)cc1 ?
**A:** inactive

**Q:** What call does the record list for COc1ccc(-c2cc(C3CCN(c4ncccc4[N+](=O)[O-])CC3)[nH]n2)cc1 ?
**A:** inactive

**Q:** What call does the record list for Cc1cccc(N2CCN(C(c3ccc(N(C)C)cc3)c3nnnn3C(C)(C)C)CC2)c1C (stereo not given) ?
**A:** inactive

**Q:** What call does the record list for Cc1ccccc1OCC(=O)N(Cc1cccc(F)c1)C1CCS(=O)(=O)C1 (stereo not given) ?
**A:** inactive

**Q:** What call does the record list for CN(C)c1cc(N)c2ccccc2n1 (tested in a mixture with another compound) ?
**A:** active

**Q:** What call does the record list for CC(C)(C)c1ccc(C(=O)NCc2nnc(SCC(=O)N3CCCc4ccccc43)n2-c2ccccc2)cc1 ?
**A:** inactive

**Q:** What call does the record list for COc1ccc(-c2cc(C(=O)N(C)Cc3ccccc3)c3ccccc3n2)cc1 ?
**A:** inactive

***
**Q:** What call does the record list for CC(C)(C)n1nnnc1C(c1ccc(Cl)cc1)N1CCSCC1 (stereo not given) ?
**A:** inactive

**Q:** What call does the record list for Nc1nc(-c2ccccc2)cc(-c2ccccc2)n1 ?
**A:** inactive
